Values from paper PMC5844530

Assay Explanation: Pharmacokinetics in whole blood, CD-1 mice
Protocol Conditions: male, CD-1, mouse, in vivo, 100 mg/kg, Mean Conc., blood; fosmetpantotenate 100 mg/kg PO; 0.083 hr
Quantity Measured: concentration at 0.083 h
The reply should read as a number followed by its unit.

Q: Need concentration at 0.083 h, item COC(=O)CCNC(=O)[C@H](O)C(C)(C)COP(=O)(N[C@@H](C)C(=O)OC)Oc1ccccc1 (mixture of isomers) [Fosmetpantotenate]
Ans: 1.97 nM

----------
Provide the recorded % Parent AUCAll for the entries that follow.
Assay Explanation: Pharmacokinetics in whole blood, CD-1 mice
Protocol Conditions: CD1 mouse; 700 mg/kg PO; metabolite AUCall/Parent AUCall x 100

{"Compound": "CC1(C)COP(=O)(O)O[C@H]1C(=O)NCCC(=O)O", "Quantity Measured": "% Parent AUCAll", "Measured": "1,990%"}
{"Compound": "COC(=O)[C@H](C)NP(=O)(OCC(C)(C)[C@@H](O)C(=O)NCCC(=O)O)Oc1ccccc1 (stereo partly shown)", "Quantity Measured": "% Parent AUCAll", "Measured": "10,500%"}
{"Compound": "COC(=O)CCNC(=O)[C@@H]1OP(=O)(N[C@@H](C)C(=O)OC)OCC1(C)C (stereo partly shown)", "Quantity Measured": "% Parent AUCAll", "Measured": "257%"}

# context switch: different compound, same % Parent AUCAll
Q: Need % Parent AUCAll, item COC(=O)CCNC(=O)[C@@H]1OP(=O)(O)OCC1(C)C
Ans: 7,220%

----------
Assay Explanation: Pharmacokinetics in whole blood, cynomolgus monkeys
Protocol Conditions: male, cynomolgus monkey, in vivo, 300 mg/kg, Fosmetpantotenate blood concentration, Cyno #2, male cynomolgus monkeys, fosmetpantotenate 300 mg/kg oral, blood, 0.5 hr
Quantity Measured: concentration at 0.5 h (nM)
One number for each entry, in nM.

Q: Need concentration at 0.5 h, item COC(=O)CCNC(=O)[C@H](O)C(C)(C)COP(=O)(N[C@@H](C)C(=O)OC)Oc1ccccc1 (mixture of isomers) [Fosmetpantotenate]
Ans: 541

----------
Assay Explanation: Microdialysis (brain striatal dialysate) in C57Bl6 mice
Protocol Conditions: male, C57Bl6, mouse, striatal dialysate (brain microdialysate), other: direct infusion into the striatum via cannula, 125 µg per animal
Quantity Measured: concentration at 3.5 h
The reply should read as a number followed by its unit.

Q: Need concentration at 3.5 h, item COC(=O)CCNC(=O)[C@H](O)C(C)(C)COP(=O)(N[C@@H](C)C(=O)OC)Oc1ccccc1 (mixture of isomers) [Fosmetpantotenate]
Ans: 2.83 µM

----------
Assay Explanation: Microdialysis (striatal dialysate and blood) in cynomolgus monkeys
Format: in vivo, cynomolgus monkey
Protocol Conditions: cynomolgus monkey, in vivo, 300 mg/kg, individual Cyno; Fosmetpantotentate 300 mg/kg PO; corrected for dilution; post-dose, time 1 hr; read-out: Fosmetpantotenate Dialysate Concentration
Quantity Measured: concentration at 1 h (nM)
Give bare numbers, in nM.

Q: Need concentration at 1 h, item COC(=O)CCNC(=O)[C@H](O)C(C)(C)COP(=O)(N[C@@H](C)C(=O)OC)Oc1ccccc1 (mixture of isomers) [Fosmetpantotenate]
Ans: 393

----------
Assay Explanation: Pharmacokinetics in whole blood, Sprague-Dawley rats
Protocol Conditions: male, Sprague-Dawley, rat, in vivo, 700 mg/kg, Fosmetpantotenate Mean Conc., male Sprague-Dawley rats, fosmetpantotenate 700 mg/kg oral, blood, 2 hr, mean, BQL <1.26 nM
Quantity Measured: concentration at 2 hr

Q: Need concentration at 2 hr, item COC(=O)CCNC(=O)[C@H](O)C(C)(C)COP(=O)(N[C@@H](C)C(=O)OC)Oc1ccccc1 (mixture of isomers) [Fosmetpantotenate]
Ans: 849 nM
